measured-on: mushroom tyrosinase (Agaricus bisporus, UniProt C7FF04)
Construct: purchased Sigma T-3824
Sequence (C7FF04 1-392 limits assumed): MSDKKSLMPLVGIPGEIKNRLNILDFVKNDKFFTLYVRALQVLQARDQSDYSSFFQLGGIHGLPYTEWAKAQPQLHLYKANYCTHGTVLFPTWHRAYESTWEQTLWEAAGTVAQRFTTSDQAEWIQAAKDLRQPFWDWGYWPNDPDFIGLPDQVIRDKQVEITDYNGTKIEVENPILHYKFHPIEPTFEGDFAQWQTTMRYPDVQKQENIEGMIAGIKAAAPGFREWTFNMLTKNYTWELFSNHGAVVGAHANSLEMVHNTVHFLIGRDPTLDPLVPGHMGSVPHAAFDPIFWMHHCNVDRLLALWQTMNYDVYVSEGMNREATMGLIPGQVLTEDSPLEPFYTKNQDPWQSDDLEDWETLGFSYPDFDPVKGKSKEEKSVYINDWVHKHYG
assay-details: Tyrosinase inhibition test (in vitro acellular depigmenting activity)
Type: biochemical
study-conditions: monophenol monooxygenase (MPMO) function; reference molecules for the test; read-out: IC 50 (MPMO)
test-readout: IC50

Recorded IC50 (compound Oc1ccc(O)cc1 [Hydroquinone, reference compound] ): 3000 to 4000 nM

Note: attention shifts to another entry.
Recorded IC50 (compound N[C@@H](CCC(=O)N[C@@H](CS)C(=O)NCC(=O)O)C(=O)O [Reduced glutathion, reference compound] ): 1000 to 2000 nM

====

measured-on: mushroom tyrosinase (Agaricus bisporus, UniProt C7FF04)
Construct: purchased Sigma T-3824
assay-details: Tyrosinase inhibition test (in vitro acellular depigmenting activity)
Assay type: biochemical
study-conditions: polyphenol oxidase (PPO) function; reference molecules for the test
pIC50: −log10 of the molar value.
test-readout: pIC50

Recorded pIC50 (compound O=C1O[C@H]([C@@H](O)CO)C(O)=C1O [Vitamin C, reference compound] ): 4.40 to 4.70

====

compounds and their reported μg of sample for 1 μg of Trolox
assay-details: Antioxidant capacity by chemiluminescence (Photochem Analytik Jena)
study-conditions: Trolox equivalent; lower = stronger antioxidant

Worked cases, answers included:
Recorded μg of sample for 1 μg of Trolox (compound CCCCCCCCCCOc1cc(O)ccc1S(=O)(=O)c1ccc(O)cc1O ): 147 μg of sample for 1 μg of Trolox

Recorded μg of sample for 1 μg of Trolox (compound CC(C)CC(=O)Oc1cc(O)ccc1Sc1ccc(O)cc1O ): 2.8 μg of sample for 1 μg of Trolox

Recorded μg of sample for 1 μg of Trolox (compound CCCCCCCCCCCC(=O)Oc1cc(O)ccc1[S+]([O-])c1ccc(O)cc1O (stereo not shown) ): 69 μg of sample for 1 μg of Trolox

Recorded μg of sample for 1 μg of Trolox (compound CCCCOc1cc(O)ccc1Sc1ccc(O)cc1O ): 2.8 μg of sample for 1 μg of Trolox

Recorded μg of sample for 1 μg of Trolox (compound CC(C)=CCOc1cc(O)ccc1Sc1ccc(O)cc1O ): 4.7 μg of sample for 1 μg of Trolox

More entries:
Recorded μg of sample for 1 μg of Trolox (compound COc1ccc(/C=C/C(=O)Oc2cc(O)ccc2Sc2ccc(O)cc2O)cc1OC ): 2.8 μg of sample for 1 μg of Trolox

Recorded μg of sample for 1 μg of Trolox (compound CCCCCCCCCCOc1cc(O)ccc1Sc1ccc(O)cc1O ): 3.4 μg of sample for 1 μg of Trolox

Recorded μg of sample for 1 μg of Trolox (compound Oc1ccc(Sc2ccc(OCc3ccccc3)cc2O)c(O)c1 ): 22 μg of sample for 1 μg of Trolox

Recorded μg of sample for 1 μg of Trolox (compound CC(C)CC(=O)Oc1ccc(Sc2ccc(O)cc2O)c(O)c1 ): 25.6 μg of sample for 1 μg of Trolox

Recorded μg of sample for 1 μg of Trolox (compound CCCCCCCCCCCC(=O)Oc1cc(O)ccc1Sc1ccc(O)cc1O ): 4.8 μg of sample for 1 μg of Trolox

Recorded μg of sample for 1 μg of Trolox (compound CCCCCCCCCCOc1cc(O)ccc1[S+]([O-])c1ccc(O)cc1O (stereo not shown) ): 28 μg of sample for 1 μg of Trolox

Recorded μg of sample for 1 μg of Trolox (compound CCCCCCCC(=O)Oc1cc(O)ccc1Sc1ccc(O)cc1O ): 30 μg of sample for 1 μg of Trolox

Recorded μg of sample for 1 μg of Trolox (compound CCCCCCCCOc1cc(O)ccc1Sc1ccc(O)cc1O ): 3.4 μg of sample for 1 μg of Trolox

====

assay-details: Antioxidant capacity by chemiluminescence (Photochem Analytik Jena)
study-conditions: Trolox equivalent; lower = stronger antioxidant
compounds and their reported μg of sample for 1 μg of Trolox

Recorded μg of sample for 1 μg of Trolox (compound Oc1ccc(Sc2ccc(O)cc2OCc2ccccc2)c(O)c1 ): 3.2 μg of sample for 1 μg of Trolox

Recorded μg of sample for 1 μg of Trolox (compound COc1ccc(/C=C/C(=O)Oc2cc(O)ccc2Sc2ccc(O)cc2O)cc1 ): 2.5 μg of sample for 1 μg of Trolox

Recorded μg of sample for 1 μg of Trolox (compound CCCCCCCCNC(=O)Oc1cc(O)ccc1Sc1ccc(O)cc1O ): 3.8 μg of sample for 1 μg of Trolox

Recorded μg of sample for 1 μg of Trolox (compound CCCCC/C=C\C/C=C\CCCCCCCC(=O)Oc1cc(O)ccc1[S+]([O-])c1ccc(O)cc1O (centres unmarked) ): 40 μg of sample for 1 μg of Trolox

Recorded μg of sample for 1 μg of Trolox (compound [O-][S+](c1ccc(O)cc1O)c1ccc(O)cc1O ): 73 μg of sample for 1 μg of Trolox

More entries:
Recorded μg of sample for 1 μg of Trolox (compound CCCCOc1ccc(Sc2ccc(O)cc2O)c(O)c1 ): 14.9 μg of sample for 1 μg of Trolox

Recorded μg of sample for 1 μg of Trolox (compound Oc1ccc(Sc2ccc(O)cc2O)c(O)c1 ): 23 μg of sample for 1 μg of Trolox

Recorded μg of sample for 1 μg of Trolox (compound CCCCCCCCCCCCCCCCOc1cc(O)ccc1Sc1ccc(O)cc1O ): 5.7 μg of sample for 1 μg of Trolox

Recorded μg of sample for 1 μg of Trolox (compound CCCCCCCC(=O)Oc1ccc(Sc2ccc(O)cc2O)c(O)c1 ): 33.2 μg of sample for 1 μg of Trolox

Recorded μg of sample for 1 μg of Trolox (compound CC(C)=CCC/C(C)=C/COc1cc(O)ccc1Sc1ccc(O)cc1O ): 5.2 μg of sample for 1 μg of Trolox

Recorded μg of sample for 1 μg of Trolox (compound O=C(CCc1ccccc1)Oc1ccc(Sc2ccc(O)cc2O)c(O)c1 ): 24.1 μg of sample for 1 μg of Trolox

====

molecules and their reported μg of sample for 1 μg of Trolox
assay-details: Antioxidant capacity by chemiluminescence (Photochem Analytik Jena)
study-conditions: Trolox equivalent; lower = stronger antioxidant

Worked cases, answers included:
Recorded μg of sample for 1 μg of Trolox (molecule O=C(CCc1ccccc1)Oc1cc(O)ccc1Sc1ccc(O)cc1O ): 3.9 μg of sample for 1 μg of Trolox

Recorded μg of sample for 1 μg of Trolox (molecule O=S(=O)(c1ccc(O)cc1O)c1ccc(O)cc1O ): 301 μg of sample for 1 μg of Trolox

Recorded μg of sample for 1 μg of Trolox (molecule COc1ccc(COc2cc(O)ccc2Sc2ccc(O)cc2O)cc1 ): 3.5 μg of sample for 1 μg of Trolox

More entries:
Recorded μg of sample for 1 μg of Trolox (molecule CCCCC/C=C\C/C=C\CCCCCCCC(=O)Oc1cc(O)ccc1Sc1ccc(O)cc1O ): 5.9 μg of sample for 1 μg of Trolox

Recorded μg of sample for 1 μg of Trolox (molecule CCCCCCCCOc1ccc(Sc2ccc(O)cc2O)c(O)c1 ): 18.8 μg of sample for 1 μg of Trolox

Recorded μg of sample for 1 μg of Trolox (molecule CC(C)=CCC/C=C(\C)CC/C(C)=C/COc1cc(O)ccc1Sc1ccc(O)cc1O ): 9.7 μg of sample for 1 μg of Trolox
